Numbers sourced from the supplement of paper PMC9170038.

Test system: MS2 coat protein
Assay: apparent KD of MS2 coat protein; designed switch direction (-1 OFF switch, 1 ON switch): -1; higher = weaker reporter binding
Conditions: input ligand: FMN 200 uM
For each entry below, report its apparent KD of MS2 coat protein value.
State the result as a value with its unit after it.

Please report the measured apparent KD of MS2 coat protein for UGAGCUUCAGGAUAUACGUGACGUCCGUGAGGACGAAGGUUACAUGAGGAUCACCCAUGUAGAAGGGAAGUUCU [Mat - Exclusion 2 - JL Mod - D31] (Eterna round: R97, puzzle: Exclusion 2)
60.8 nM

Indicate the recorded apparent KD of MS2 coat protein value for this sequence: CAUGUGUUAGGAUAUGCACAGAUCUCCGAAAGGAGAUCUGUGCAGAAGGAACAUGAGGAUCACCCAUGUUGAUG [Mod of Brourd 16 - Jieux - Exclusion 4] (Eterna round: R97, puzzle: Exclusion 4)
136 nM

Look up apparent KD of MS2 coat protein of GCGGUACAUGAGGAUCACCCAUGUCAGGAUAUCCGCUGUUUGUUGAUAAGCAGGCGGUGGAGAAGGGACUUCGC [-26.7, -26 kcal, 23% A] (Eterna round: R97, puzzle: Exclusion 1) and report it.
39.7 nM

Given CCAAGCUUAUUCAUUAACAACAUGAGGAUCACCCAUGUAUAGGCAAUUAUGUCUGGGCUCUUUAGUGCUCGUCUUAU [Sensor-V1 #24] (Eterna round: R97, puzzle: Sensor, turn-off variant 1) , respond with its apparent KD of MS2 coat protein.
18 nM

Given CACGCAUCAGGAUAUACAUGAGGAUCACCCAUGUGUUCCAGCUAGGAAACUAGCAAAUGUAGAAGGGAUGCGUG [Mat - Exclusion 3 - JL Mod - D7] (Eterna round: R97, puzzle: Exclusion 3) , respond with its apparent KD of MS2 coat protein.
727 nM

* * *

Tested on: K4 kissing-loop RNA reporter;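 note: bound reporter read as fluorescence of individual clusters on recovered sequencing chips by microscopy, with normalized cluster intensities fitted with a binding model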
Assay: apparent KD of K4 kissing-loop reporter; higher = weaker reporter binding
Settings: Eterna round: R107; input ligand: theophylline 20 uM
Exercise: state measured apparent KD of K4 kissing-loop reporter for each of the sequences provided.
Write down the numeric answer in nM and omit the unit.

Tell me its apparent KD of K4 kissing-loop reporter given GCUAUGGUAGGAAGGAGCGCGGACGAUAUUUAUCGAGUGAUGUUCGAUUAAUUAAUUUUAACGCAGGUAGGUCGCCUACUAUAGC [Arginine B K4 28] as the entry.
88.2

Dear colleague, please send me the reported apparent KD of K4 kissing-loop reporter for UGAUAGGACAGAAGGAGCGGUAGUGAUGUUACCAAAAGGUUAAGGUGUCAAAAGACACCCUGCCAGGUAGGUCGCUGUCCUAUCU when you can.
89.9

// Input: CGAGUGAUGUUCGUUCGUUUAUUUCUUUGACAGGAUAUGCGGAAACGCAGAAGGGUCACCUUUGAGUUAAAGGAAUUUACGUUAU [Ex FMN A 26] . Output its apparent KD of K4 kissing-loop reporter only.
539

* * *

What apparent KD of MS2 coat protein was measured for each of the following?
Tested on: MS2 coat protein
Assay: apparent KD of MS2 coat protein; higher = weaker reporter binding
Conditions: Eterna round: R107; input ligand: arginine 13.2 mM
Give the value in nM but do not write nM after it.

Please give the documented apparent KD of MS2 coat protein of AAAAUCCUACUUGAGGAUCACCCAGGUGAAGGAGCGCCCGAAAGGGCAGGUAGGUCGCACCUGAGGAUCACCCUGGUAACCUAAA [ArgEX 9 #DoubleMS2 #OpenEnded]
140

State its apparent KD of MS2 coat protein for this sequence: CACGCACGAUCGGCCGCCACUCAUGUAGCUUACAUGAGGAUCACCCAUGUAUUUUCUUUCUUAUAGAGGACCGGGAUCGUGCGUG [#04 Same State - Tryptophan B]
21

Report measured apparent KD of MS2 coat protein; entry is GAUCUUGCGGGCGCCCGCAAGGUUGCGGAUACCAGCGAGAUUAAUCGCCCUUGGCAGCCGAACAUGAGGAUCACCCAUGUCGGAC [Same State - Theophylline A Attempt #2 (HarryS)]
8.92

Provide only the value of recorded apparent KD of MS2 coat protein for GUAAUAUACAGAAGGAGCGUGAUAGUGAGCUUGUACAACAUGAGGAUCACCCAUGUAUAAUCACAGGUAGGUCGCUGUAUAGGGU [Arg B SS t2]
17

Item UAUCCACAUGAGGAUCACCCAUGUUAGGAAGGAGCGGUGGAUGCACCAGGUAGGUCGCCUAGCUGAGGACUGUCGGUGGAUUCGU [Exclusion - Arginine A (Freestyle 21)] : provide apparent KD of MS2 coat protein
56.5

Look up apparent KD of MS2 coat protein of GCCUAGCAGCGAAGGAGCGAGGUAAAUAAAUAAAUAAAUAACAAGAGGAUCACCCUUGUUCCUCAGGUAGGUCGCGCUGCUAGGC [SSAB Alternative Aptamer #1 NP+V+V2] and report it.
16

Please look at this sequence and report its apparent KD of MS2 coat protein: AUCAUAAUAGACUCGUUAGAUUAUAUGGAACGAGGACCGGUACGGCCGCCACUCGUGAUGUACAUGAGGAUCACCCAUGUUAGCU [JR_Nu_SSTryptoA_Sub025]
15.2

Return reported apparent KD of MS2 coat protein. Input sequence: UGUAUGUGAUGGGAUACCAGACCAGCUGGUGAUACAUGAGGAUCACCCAUGUAAAUUUGGGUCCCUUGGCAGCCCAUCGCAUACU [SSTheo B #25]
32.4

Look up and state reported apparent KD of MS2 coat protein for UUCGUUGGCGAUCUGGGUUUACCAGAUCGGCGAGGACCGGUACGGCCGCCACUCGUGUUUUCUUUACAUGAGGAUCACCCAUGUU [SSTA #3]
16.9

Could you please provide reported apparent KD of MS2 coat protein for UGUAUGUGAUUUGAUACCAGACCAGCUGGUGGUACUUGAGGAACACCCAAGUAGGUUUGGGUCCCUUGGCAGCAAAUCGCAUACU [SS Theo B #24 Ms11] ? Thanks!
110

Provide measured apparent KD of MS2 coat protein value, entry: UGUAUGUGAUUUGAUACCAGACCAGCUGGUGGUGCAUGAGGAACACCCAUGCAGGUUUGGGUCCCUUGGCAGCAAAUCGCAUACU [SS Theo B #24 Ms19]
149

# return recorded apparent KD of MS2 coat protein for entry CACAGUGCGAAUUUGAAUUCGCACGAUCCUCGAGGACCGGUACGGCCGCCACUCGCGCGGGUCGUACAUGAGGAUCACCCAUGUC [Quermavebe]
25
